Reported IC50 is given for each of the following compounds.
Biological target: LdMetRS (Leishmania donovani)
Sequence (A0A3Q8IBX2 entry or part of it): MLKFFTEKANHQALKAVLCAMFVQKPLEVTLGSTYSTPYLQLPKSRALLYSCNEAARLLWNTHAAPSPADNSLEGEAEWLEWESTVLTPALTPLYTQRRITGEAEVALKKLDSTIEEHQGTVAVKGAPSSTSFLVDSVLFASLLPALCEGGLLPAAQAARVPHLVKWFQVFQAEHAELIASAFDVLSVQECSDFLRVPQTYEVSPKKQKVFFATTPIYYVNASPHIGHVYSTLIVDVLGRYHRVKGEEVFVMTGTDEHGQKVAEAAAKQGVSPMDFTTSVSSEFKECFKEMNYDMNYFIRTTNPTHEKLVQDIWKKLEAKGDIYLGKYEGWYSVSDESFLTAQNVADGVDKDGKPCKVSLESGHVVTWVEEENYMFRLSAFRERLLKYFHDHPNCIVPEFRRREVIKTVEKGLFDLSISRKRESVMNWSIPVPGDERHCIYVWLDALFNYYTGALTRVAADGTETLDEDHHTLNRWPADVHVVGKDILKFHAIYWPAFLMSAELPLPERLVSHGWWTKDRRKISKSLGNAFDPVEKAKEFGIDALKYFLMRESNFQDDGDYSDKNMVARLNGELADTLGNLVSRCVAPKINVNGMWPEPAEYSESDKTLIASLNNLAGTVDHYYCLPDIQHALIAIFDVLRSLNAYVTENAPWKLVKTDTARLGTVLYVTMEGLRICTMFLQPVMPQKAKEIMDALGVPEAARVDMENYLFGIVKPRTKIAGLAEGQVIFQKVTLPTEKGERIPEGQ
Test: LdMetRS biochemical enzyme assay (BIOMOL Green)
Settings: Table 1; read-out: LdMetRS IC50
Method: LdMetRS Assay Development and Kinetic Parameter Determinations Activity of the LdMetRS enzyme was determined by monitoring levels of pyrophosphate released during the first step of the enzymatic reaction. The pyrophosphate formed was converted to two inorganic phosphate molecules using a pyrophosphatase enzyme and levels of the resulting phosphate molecules measured using the BIOMOL® Green reagent (Enzo Life Sciences) 2. […]
quantity_name: IC50 (nM)

                    structure_smiles_string  unit_spec  sign  result_value
0  O=c1nc(NCCCCCc2cc(Cl)cc(Cl)c2)[nH]c2ccccc12         nM     >        100000
1  O=c1nc(NCCCNS(=O)(=O)c2cc(Cl)cc(Cl)c2)[nH]c2ccccc12         nM     =          1900
2  O=c1nc(NCCCNCc2cc(Cl)cc(Cl)c2)[nH]c2ccccc12         nM     =           740
3  O=C(NCCCNc1nc(=O)c2ccccc2[nH]1)c1cc2c(Cl)cc(Cl)cc2[nH]1         nM     =          3300
4  CN(CCCNc1nc(=O)c2ccccc2[nH]1)Cc1cc2c(Cl)cc(Cl)cc2[nH]1         nM     =            30
5  O=c1nc(OCCCNCc2cc3c(Cl)cc(Cl)cc3[nH]2)[nH]c2ccccc12         nM     =         22000
6  O=C(CCNc1nc(=O)c2ccccc2[nH]1)NCc1cc(Cl)cc(Cl)c1         nM     =          2800
